Molecular target: SARS-CoV-2 spike on pseudovirus or live virus (USA-WA1/2020, WT) (SARS-CoV-2, UniProt P0DTC2 14-1273)
Assay: cell-based or functional assay
Listing of recorded Maximum Plateau of Neutralization by entry.
Value expressed in %; do not type the unit.

L12.cP08D10 (antibody, V domains shown, human IgG1) VH: EVQLVQSGAEVKKPGASVKVSCKASGYIFSGYYMHWVRQAPGQGLEWMGWISPDSGGTNYAQNFQGRVTMTRDTSISTGYMELSRLRSDDTAMYYCARGPRYSGTYFDYWGQGVLVTVSS VL: QSVLTQPASVSGSPGQSITISCTGTSSDVGGYNYVSWYQQHPGKVPKLMIYDVSNRPSGVSNRFSGSKSGNTASLTISGLQAEDEADYYCSSYTSSSAQVFGGGTKLTVL    60

Pending binder:
What value of Maximum Plateau of Neutralization has been recorded for this entry: L12.bP11A11 (antibody, V domains shown, human IgG1) VH: QVQLVQSGAEVKKPGASVKVSCKASGYTFTGYYMHWVRQAPGQGLEWMGWISPNSGGTNYAQKFQGWVTMTRDTSVSTAYMELSRLRFDDTAVYYCATESWVYGSGSYSSGAFDIWGQGTMVTVSS VL: QSVLTQPPSASGSPGQSVTISCTGTSSDVGGYDYVSWYQQHPGKAPKLMIYEVSKRPSGVPDRFSGSKSGNTASLTVPGLQAEDEADYYCTSYAGSNNFVFGGGTKLIVL
100
